Test system: U2OS
Test: Incucyte cell viability with U2OS; note: unitless GR value; below 1 slowed growth and below 0 cell loss
Assay type: toxicity, cell-based
Conditions: human, 18 h, 10 µM, compound concentration 10 uM, replicate number 1
Observation type: Growth Rate
Keep the answer to the number alone.

Field: example entries. Status: answers known.
Compound | Growth Rate
O=C(NCc1ccc(F)cc1)C1CCN(S(=O)(=O)c2cc(Cl)cc(Cl)c2)CC1 | 0.9
CCC(=N\O)/C(C)=C/c1ccc(F)cc1 [A-079] | 1
C=CC(=O)Nc1ccc(C(=O)Nc2n[nH]c3c2CN(C(=O)N[C@H](CN(C)C)c2ccccc2)C3(C)C)cc1 | 0.84
NC1=NC(=O)/C(=C2\CCNC(=O)c3[nH]c4ccccc4c32)N1 | 0.74

Below: the item to evaluate.
**Query** Request body: readout Growth Rate, system U2OS, query "Cn1cc(-c2ccc(-c3cncc(Cl)c3N3CCC4(CCNC4=O)CC3)cc2)cn1" . Return the value.
**Result** 0.96

---

Test system: HEK-293T
Assay: Incucyte cell viability with HEK293T; note: unitless GR value; below 1 slowed growth and below 0 cell loss
Type: toxicity, cell-based
Conditions: human, 12 h, 10 µM, compound concentration 10 uM, replicate number 2
Observation type: Growth Rate

Molecule | Assay result
O=C(N[C@H]1CCCCC/C=C\C2C[C@@]2(C(=O)O)NC(=O)[C@@H]2C[C@@H](Oc3ccncc3)CN2C1=O)OC1CCCC1 (some centres undefined) | 0.89
C[C@@H](Oc1cc(-n2cnc3ccc(OC4CCN(C)CC4)cc32)sc1C(N)=O)c1ccccc1Cl [GSK-579289A] | 0.97
CC(C1CC2CCC1C2)n1c(S)nnc1-c1ccco1 (centres undefined) | 0.63
COC(=O)c1sccc1S(=O)(=O)Nc1ccc(Nc2ccccc2)cc1OC | 0.77
Cc1onc(O)c1CC(N)C(=O)O [(R,S)-AMPA] | 0.69

**Query** Can you look up the measured Growth Rate of "CCc1cc2c(cc1-c1cccc(S(=O)(=O)F)c1)C(C)(C)c1[nH]c3cc(C#N)ccc3c1C2=O" for me?
**Result** 0.78

**Query** Can you look up the measured Growth Rate of "Cl.O=C(O)CCCN1CCC[C@H]1COc1ccc(Oc2ccc(Cl)cc2)cc1" for me?
**Result** 0.12

**Query** Can you look up the measured Growth Rate of CCOC(=O)C1=C(C)NC(C)=C(C(=O)OC)C1c1cccc([N+](=O)[O-])c1 (centres undefined) for me?
**Result** 0.63

**Query** Can you look up the measured Growth Rate of "Cn1c(C2(NC(=O)c3ccc4c(C5CCCC5)c(-c5ncc(Br)cn5)n(C)c4c3)CCC2)nc2ccc(/C=C/C(=O)O)cc21" for me?
**Result** 0.88

---

System: U2OS
Test: Incucyte cell viability with U2OS; note: unitless GR value; below 1 slowed growth and below 0 cell loss
Format: toxicity, cell-based
Details: human, 12 h, 10 µM, compound concentration 10 uM, replicate number 1
In this section we review reported Growth Rate values for a set of compounds.
Keep the answer to the number alone.

Entry smiles | Experimental system | Observation type | Assay result
Cn1cc(C(=O)O)c2ccc(N3CCC(OCc4c(-c5c(Cl)cccc5Cl)noc4C4CC4)CC3)cc21 | U2OS | Growth Rate | 0.74
Cn1cc(-n2cnc3c(NCc4nc5cc(Cl)c(Cl)cc5[nH]4)nc(N4CCOCC4)nc32)cn1 | U2OS | Growth Rate | 0.64
Cc1cn([C@H](C)CC#N)c(=O)c2cc(Cn3nc(C(F)F)cc3Cl)nn12 | U2OS | Growth Rate | 0.34
Cc1nn(C)c(COc2ccc(N3CCN(S(=O)(=O)N(C)C)CC3)cc2)c1-c1cccc2c(CCCOc3cccc4ccccc34)c(C(=O)O)n(CCN3CCOCC3)c12 | U2OS | Growth Rate | 0.85

**Query** Can you look up the measured Growth Rate of "Cc1c(N2CCCC2)nc2ccc(Br)cc2c1C(=O)NC[C@H](CCC(=O)O)c1ccccc1Cl" for me?
**Result** 0.88

**Query** Can you look up the measured Growth Rate of "COc1c(C(=O)/C=C/c2ccccc2)c(O)c(OC)c2occc12" for me?
**Result** 0.64

---

Tested on: Fibroblast
Assay: Incucyte cell viability with human fibroblast; note: unitless GR value; below 1 slowed growth and below 0 cell loss
Assay type: toxicity, cell-based
Settings: 0 h, 10 µM, compound concentration 10 uM, replicate number 1
In this section we review reported Growth Rate values for a set of molecules.
Keep the answer to the number alone.

Field: example entries. Status: answers known.
Entry smiles | Growth Rate
CN1CCN(c2ccc(/C=C(\C#N)c3ccccc3Br)cc2)CC1.Cl.Cl | 0.9
O=C(Nc1ccnc(NC(=O)C2CC2)c1)c1c(Cl)cccc1Cl | -0.14

**Query** Can you look up the measured Growth Rate of "COCCOCn1c(S(C)(=O)=O)nc2c1c(=O)n(C)c(=O)n2C" for me?
**Result** -1

**Query** Can you look up the measured Growth Rate of "O=C1CCCc2[nH]c(-c3ccnc(NCC4CC4)c3)c(Nc3ccccc3)c21" for me?
**Result** -1

**Query** Can you look up the measured Growth Rate of "COc1nc2ccc([C@@](O)(c3ccccc3)C3CCN(C(C)=O)CC3)cc2c(Cl)c1Cc1ccc(-n2cccn2)cc1" for me?
**Result** -1

**Query** Can you look up the measured Growth Rate of "CC1(C)Oc2ncnc(N)c2N=C1c1ccc([C@H]2CC[C@H](CC(=O)O)CC2)cc1" for me?
**Result** -0.99

**Query** Can you look up the measured Growth Rate of "CNc1nc(NCc2ncccn2)c2c(-c3ccc4ncccc4c3)c[nH]c2n1" for me?
**Result** -0.08

**Query** Can you look up the measured Growth Rate of "C[C@@H]1CC(=O)N(C2CC2)N=C1c1ccc(NC(=O)N2Cc3ccncc3C2)cc1" for me?
**Result** -0.95

**Query** Can you look up the measured Growth Rate of "COc1ccc(CC[C@@H](OC(=O)[C@H]2CCCCN2C(=O)[C@@H](c2cc(OC)c(OC)c(OC)c2)C2CCCCC2)c2cccc(OCCN3CCOCC3)c2)cc1OC" for me?
**Result** -0.89

---

In this section we review reported Growth Rate values for a set of compounds.
Tested on: HEK-293T
Experiment: Incucyte cell viability with HEK293T; note: unitless GR value; below 1 slowed growth and below 0 cell loss
Assay type: toxicity, cell-based
Conditions: human, 24 h, 10 µM, compound concentration 10 uM, replicate number 2
Keep the answer to the number alone.

Field: example entries. Status: answers known.
Compound | Growth Rate
Cn1c(SCc2ccc(C(C)(C)C)cc2)nc(N)cc1=O | 0.23
COc1cc2ncnc(Nc3ccc(F)c(Cl)c3)c2cc1OCCN(C)C[C@H](C)O | 0.73
CCOP(=O)(OCC)C(=Cc1cc(C(C)(C)C)c(O)c(C(C)(C)C)c1)P(=O)(OCC)OCC | 0.95
COc1cc(F)ccc1-c1cc(Nc2cc(CS(C)(=N)=O)ccn2)ncc1F (centres undefined) [ENITOCICLIB] | -0.34
O=C1c2c(Br)c(Br)c(Br)c(Br)c2C(=O)N1c1ncc[nH]1 | 0.78

**Query** Can you look up the measured Growth Rate of "COc1ccc(Br)cc1S(=O)(=O)NC(=O)/C=C/c1cc(Cl)ccc1Cc1ccc2ccccc2c1" for me?
**Result** 0.94

**Query** Can you look up the measured Growth Rate of "CCCS(=O)(=O)Nc1ccc(F)c(Nc2ncnc3cnc(-n4cnc(C)c4)nc23)c1F" for me?
**Result** 0.8

**Query** Can you look up the measured Growth Rate of "O=C(CCCCCCc1ccccc1)c1ncc(-c2ccccn2)o1" for me?
**Result** 0.97

---

Tested on: Fibroblast
Experiment: Incucyte cell viability with human fibroblast; note: unitless GR value; below 1 slowed growth and below 0 cell loss
Assay type: toxicity, cell-based
Settings: 18 h, 10 µM, compound concentration 10 uM, replicate number 2
Observation type: Growth Rate

Field: example entries. Status: answers known.
Compound | Growth Rate
Cc1cn([C@H](C)CC#N)c(=O)c2cc(Cn3nc(C(F)F)cc3Cl)nn12 | 0.99
Cc1c(N2CCNCC2)nc2ccc(Br)cc2c1C(=O)NC[C@H](CCC(=O)O)c1ccccc1Cl | 0.51
Fc1ccc(-c2nc(-c3ccc4ccccc4c3F)[nH]c2-c2ccncc2)cc1 | 0.8
COc1ccc([C@@H]2Sc3ccccc3N(CCN(C)C)C(=O)[C@@H]2OC(C)=O)cc1.Cl [DILTIAZEM HYDROCHLORIDE] | 0.94
COc1ncc(-c2cc(-c3ncc(CN4C[C@@H](C)O[C@@H](C)C4)o3)c3cn[nH]c3c2)cc1NS(C)(=O)=O | 0.05

**Query** Request body: readout Growth Rate, system Fibroblast, query "CC(C)N1CCN(Cc2cnc(-c3cc(-c4cccc5[nH]ccc45)cc4[nH]ncc34)o2)CC1" . Return the value.
**Result** 0.75

**Query** Request body: readout Growth Rate, system Fibroblast, query "CC(=O)N1CCC(c2ccc(C(=O)NC(=N)N)cc2C(F)(F)F)CC1" . Return the value.
**Result** 0.95
